Measured INHIBITION, listed per entry for reference.
System: Plasmodium falciparum
EXPERIMENTAL_PROTOCOL: Screen against P. falciparum Asexual Blood Stage (ABS), at 5uM
Format: functional, Dd2
MEASUREMENT_PARAMETERS: tested at 5 uM
Screen size: about 65,000 compounds; about 2,100 (3.2%) showed an effect of 50% or more. The median lay at about -52%. Only a selection was taken, and strong results are over-represented in it overall.
PROPERTY_MEASURED: INHIBITION

>>> result("Cc1nn(C)c(Oc2ccc(Cl)cc2)c1CN1CCC(CN)C1 (configuration not stated)")
"92.8%"
>>> result("COc1cccc(CC(C)NC(=O)NCCc2cccnc2)c1 (configuration not stated)")
"-58.4%"
>>> result("Cc1cccc(CN2C[C@H]3CCC[C@@]3(COCc3csc(C)n3)C2)n1")
"82%"
>>> result("COCCCN1CCCCC12CC(=O)N(Cc1ccccn1)C2 (configuration not stated)")
"-98.8%"
>>> result("O=C1Nc2ccccc2CC12CCCN2Cc1ccccn1 (configuration not stated)")
"-60.5%"
>>> result("O=C(c1ccc(-n2ccnc2)nc1)N1CCN2CCCCC2C1 (configuration not stated)")
"-56.6%"
>>> result("CC(C)OCCNC1(c2ccc(F)cc2)CCOCC1")
"34.8%"
>>> result("Cc1ccc(C(=O)N2C[C@@H]3OCCN(C)[C@@H]3C2)cn1")
"-12.2%"
>>> result("Cn1ncc2c(NC3CN4CCC3CC4)nc(-c3ccncc3)nc21 (configuration not stated)")
"0.572%"
>>> result("CCN1CCc2[nH]cnc2C12CCN(c1ccc(Cl)cn1)CC2")
"42.9%"
>>> result("c1cnc(N2CCOCC3(CN(Cc4cc[nH]n4)CCO3)C2)nc1 (configuration not stated)")
"-54.7%"
>>> result("Cc1cc(CN2C[C@H]3CCC[C@@]3(COCc3csc(C)n3)C2)no1")
"14.2%"
>>> result("CN1CCC(NCC(O)c2cccc(OCc3ccccc3)c2)CC1 (configuration not stated)")
"90.7%"
>>> result("O=C(c1cccnc1)N1C[C@H]2CC[C@@H](C1)N(Cc1ncc[nH]1)C2")
"-47.1%"
>>> result("OC(CNC1CCSCC1)c1cccc(OCc2ccccc2)c1 (configuration not stated)")
"74.4%"
>>> result("CCOc1cccc(C(C)NC(=O)N2CCC3(CC2)OCCO3)c1 (configuration not stated)")
"-117%"
>>> result("Cc1cc(CN2C[C@@H]3COC[C@]3(COCc3csc(C)n3)C2)no1")
"-58.8%"

====

Tested on: Plasmodium falciparum
EXPERIMENTAL_PROTOCOL: Screen against P. falciparum Asexual Blood Stage (ABS), at 5uM
Format: functional, Dd2
MEASUREMENT_PARAMETERS: tested at 5 uM
Out of some 65,000 compounds screened, about 2,100 (3.2%) showed an effect of 50% or more. The median lay at about -52%. The entries come from a sample that favours strong results as a whole.
PROPERTY_MEASURED: INHIBITION

>>> result("COCCOc1ccccc1CNCC1COC2(CCCC2)O1 (stereo not given)")
"74.3%"
>>> result("Cc1noc(C)c1CN1C(=O)[C@@H]2CC[C@H]1CN(Cc1cscn1)C2")
"-41.1%"
>>> result("c1ccc(COC2C[C@@H]3CN(Cc4cccnc4)C[C@@H]3C2)cc1 (stereo not given in full)")
"-9.68%"
>>> result("CCCNCc1ccc(-c2cc(N)nc3[nH]ccc23)cc1")
"72.3%"
>>> result("Fc1ccccc1-c1cccc(C2CCCN(C3CCOCC3)C2)n1 (stereo not given)")
"82.3%"

Just for reference, ChEMBL document CHEMBL4513216 is where these values come from.
